biological target: PD-1/PD-L1 interaction (PD-1-Ig / PD-L1-His) (Homo sapiens (Human)); experiment: PD-1/PD-L1 Homogenous Time-Resolved Fluorescence (HTRF) binding assay; conditions: PD-1/PD-L1 HTRF binding assay; value given as range class; read-out: Range or IC50
Sequence (Q9NZQ7 other isoform, or with tags, fused parts or gaps): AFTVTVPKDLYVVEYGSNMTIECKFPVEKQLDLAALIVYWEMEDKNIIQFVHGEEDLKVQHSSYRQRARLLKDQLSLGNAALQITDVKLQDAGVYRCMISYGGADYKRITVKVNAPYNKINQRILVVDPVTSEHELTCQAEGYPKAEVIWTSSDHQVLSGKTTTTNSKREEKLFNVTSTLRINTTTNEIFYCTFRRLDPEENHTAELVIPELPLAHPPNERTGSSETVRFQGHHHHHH
Readings of IC50 for the listed compounds
Experimental Endpoint: IC50

1) Cc1c(COc2ccc(CNC[C@@H](O)CC(=O)O)c(OCCCCC#N)c2)cccc1-c1ccccc1	0.6 to 10 nM
2) CC(=O)NCCNCc1cc(Cl)c(OCc2cccc(-c3ccc4c(c3)OCCO4)c2C)cc1OCc1cncc(Br)c1	0.6 to 10 nM
3) CC(=O)NCCNCc1ccc(OCc2cccc(-c3ccccc3)c2C)cc1OCc1ccc2nc(C(F)(F)F)cc(Cl)c2c1	100 to 20000 nM
4) COC(=O)c1ccc(F)c(COc2cc(OCc3cccc(-c4ccccc4)c3C)ccc2CNCCNC(C)=O)c1	100 to 20000 nM
5) Cc1c(COc2cc(OCc3cccc(C#N)c3)c(CN[C@@H](Cc3ccccn3)C(=O)O)cc2Cl)cccc1-c1ccc2c(c1)OCCO2	0.6 to 10 nM
6) Cc1c(COc2ccc(CN[C@@H](CO)CC(=O)O)c(OCc3cccc(C#N)c3)c2)cccc1-c1ccc2c(c1)OCCO2	0.6 to 10 nM
7) COC(C)(C)C(NCc1cc(Cl)c(OCc2cccc(-c3ccc4c(c3)OCCO4)c2C)cc1OCc1cccc(C#N)c1)C(=O)O (stereo not shown)	10 to 100 nM
